- Test Summary: Non-compartmental plasma pharmacokinetics after a single oral filgotinib dose
- Format: in vivo
- Protocol Conditions: male, human, 50 mg
Quantity: Tmax (h)
Please reply with the bare figure in h and do not write the unit itself.

Query Tmax for O=C(Nc1nc2cccc(-c3ccc(CN4CCS(=O)(=O)CC4)cc3)n2n1)C1CC1
2

###

- Type: in vivo, human
- Protocol Conditions: male, human, plasma, oral, 450 mg
Quantity: Tmax (h)
Please reply with the bare figure in h and do not write the unit itself.

Query Tmax for O=C(Nc1nc2cccc(-c3ccc(CN4CCS(=O)(=O)CC4)cc3)n2n1)C1CC1 [Filgotinib]
2.5

###

- Format: in vivo, human
- Protocol Conditions: male, human, plasma, oral, 450 mg
Quantity: Cmax (ng/mL)
Please reply with the bare figure in ng/mL and do not write the unit itself.

Query Cmax for O=C(Nc1nc2cccc(-c3ccc(CN4CCS(=O)(=O)CC4)cc3)n2n1)C1CC1
2580

###

- Format: in vivo, human
- Protocol Conditions: male, human, plasma, oral, 300 mg
Quantity: concentration at 24 h (ng/mL)
Please reply with the bare figure in ng/mL and do not write the unit itself.

Query concentration at 24 h for O=C(Nc1nc2cccc(-c3ccc(CN4CCS(=O)(=O)CC4)cc3)n2n1)C1CC1 [Filgotinib]
9.93

###

- Test Summary: Non-compartmental plasma pharmacokinetics after a single oral filgotinib dose
- Type: in vivo
- Protocol Conditions: male, human, 100 mg
Quantity: AUC(0-inf) (ng·h/mL)
Please reply with the bare figure in ng·h/mL and do not write the unit itself.

Query AUC(0-inf) for O=C(Nc1nc2cccc(-c3ccc(CN4CCS(=O)(=O)CC4)cc3)n2n1)C1CC1 [Filgotinib]
1740

###

- Test Summary: Non-compartmental plasma pharmacokinetics after a single oral filgotinib dose
- Assay type: in vivo
- Protocol Conditions: male, human, 10 mg
Quantity: AUC(0-inf) (ng·h/mL)
Please reply with the bare figure in ng·h/mL and do not write the unit itself.

Query AUC(0-inf) for O=C(Nc1nc2cccc(-c3ccc(CN4CCS(=O)(=O)CC4)cc3)n2n1)C1CC1 [Filgotinib]
136

###

- Test Summary: Non-compartmental plasma pharmacokinetics after a single oral filgotinib dose
- Type: in vivo
- Protocol Conditions: male, human, 200 mg
Quantity: AUC(0-inf)

Query AUC(0-inf) for O=C(Nc1nc2cccc(-c3ccc(CN4CCS(=O)(=O)CC4)cc3)n2n1)C1CC1
4840 ng·h/mL

###

- Test Summary: Non-compartmental plasma pharmacokinetics after a single oral filgotinib dose
- Assay type: in vivo
- Protocol Conditions: male, human, 200 mg
Quantity: half-life (h)
Please reply with the bare figure in h and do not write the unit itself.

Query half-life for O=C(Nc1nc2cccc(-c3ccc(CN4CCS(=O)(=O)CC4)cc3)n2n1)C1CC1 [Filgotinib]
5.68

###

- Format: in vivo, human
- Protocol Conditions: male, human, plasma, oral, 200 mg
Quantity: Cmax (µg/mL)
Please reply with the bare figure in µg/mL and do not write the unit itself.

Query Cmax for O=C(Nc1nc2cccc(-c3ccc(CN4CCS(=O)(=O)CC4)cc3)n2n1)C1CC1 [Filgotinib]
1.2

###

- Type: in vivo, human
- Protocol Conditions: male, human, plasma, oral, 100 mg
Quantity: AUC(0-t) (ng·h/mL)
Please reply with the bare figure in ng·h/mL and do not write the unit itself.

Query AUC(0-t) for O=C(Nc1nc2cccc(-c3ccc(CN4CCS(=O)(=O)CC4)cc3)n2n1)C1CC1
2380

###

- Test Summary: Non-compartmental plasma pharmacokinetics after a single oral filgotinib dose
- Type: in vivo
- Protocol Conditions: male, human, 200 mg
Quantity: Cmax (ng/mL)
Please reply with the bare figure in ng/mL and do not write the unit itself.

Query Cmax for O=C(Nc1nc2cccc(-c3ccc(CN4CCS(=O)(=O)CC4)cc3)n2n1)C1CC1
1160

###

- Test Summary: Non-compartmental plasma pharmacokinetics after a single oral filgotinib dose
- Assay type: in vivo
- Protocol Conditions: male, human, 10 mg
Quantity: Cmax (ng/mL)
Please reply with the bare figure in ng/mL and do not write the unit itself.

Query Cmax for O=C(Nc1nc2cccc(-c3ccc(CN4CCS(=O)(=O)CC4)cc3)n2n1)C1CC1
35.7

###

- Test Summary: Non-compartmental plasma pharmacokinetics after a single oral filgotinib dose
- Format: in vivo
- Protocol Conditions: male, human, 50 mg
Quantity: half-life (h)
Please reply with the bare figure in h and do not write the unit itself.

Query half-life for O=C(Nc1nc2cccc(-c3ccc(CN4CCS(=O)(=O)CC4)cc3)n2n1)C1CC1
5.28

###

- Type: in vivo, human
- Protocol Conditions: male, human, plasma, oral, 100 mg
Quantity: Cmax (ng/mL)
Please reply with the bare figure in ng/mL and do not write the unit itself.

Query Cmax for O=C(Nc1nc2cccc(-c3ccc(CN4CCS(=O)(=O)CC4)cc3)n2n1)C1CC1
556

###

- Test Summary: Non-compartmental plasma pharmacokinetics after a single oral filgotinib dose
- Format: in vivo
- Protocol Conditions: male, human, 50 mg
Quantity: Cmax (ng/mL)
Please reply with the bare figure in ng/mL and do not write the unit itself.

Query Cmax for O=C(Nc1nc2cccc(-c3ccc(CN4CCS(=O)(=O)CC4)cc3)n2n1)C1CC1
247

###

- Type: in vivo, human
- Protocol Conditions: male, human, plasma, oral, 450 mg
Quantity: concentration at 24 h (ng/mL)
Please reply with the bare figure in ng/mL and do not write the unit itself.

Query concentration at 24 h for O=C(Nc1nc2cccc(-c3ccc(CN4CCS(=O)(=O)CC4)cc3)n2n1)C1CC1
17.6

###

- Type: in vivo, human
- Protocol Conditions: male, human, plasma, oral, 100 mg
Quantity: Tmax (h)
Please reply with the bare figure in h and do not write the unit itself.

Query Tmax for O=C(Nc1nc2cccc(-c3ccc(CN4CCS(=O)(=O)CC4)cc3)n2n1)C1CC1
3

###

- Type: in vivo, human
- Protocol Conditions: male, human, plasma, oral, 25 mg
Quantity: AUC(0-t) (ng·h/mL)
Please reply with the bare figure in ng·h/mL and do not write the unit itself.

Query AUC(0-t) for O=C(Nc1nc2cccc(-c3ccc(CN4CCS(=O)(=O)CC4)cc3)n2n1)C1CC1
346

###

- Format: in vivo, human
- Protocol Conditions: male, human, plasma, oral, 25 mg
Quantity: Cmax (ng/mL)
Please reply with the bare figure in ng/mL and do not write the unit itself.

Query Cmax for O=C(Nc1nc2cccc(-c3ccc(CN4CCS(=O)(=O)CC4)cc3)n2n1)C1CC1
144

###

- Test Summary: Non-compartmental plasma pharmacokinetics after a single oral filgotinib dose
- Type: in vivo
- Protocol Conditions: male, human, 10 mg
Quantity: Tmax (h)
Please reply with the bare figure in h and do not write the unit itself.

Query Tmax for O=C(Nc1nc2cccc(-c3ccc(CN4CCS(=O)(=O)CC4)cc3)n2n1)C1CC1
1

###

- Type: in vivo, human
- Protocol Conditions: male, human, plasma, oral
Quantity: Tmax

Query Tmax for O=C(Nc1nc2cccc(-c3ccc(CN4CCS(=O)(=O)CC4)cc3)n2n1)C1CC1 [Filgotinib]
0.5 to 5 h

###

- Type: in vivo, human
- Protocol Conditions: male, human, plasma, oral, 200 mg
Quantity: concentration at 24 h (ng/mL)
Please reply with the bare figure in ng/mL and do not write the unit itself.

Query concentration at 24 h for O=C(Nc1nc2cccc(-c3ccc(CN4CCS(=O)(=O)CC4)cc3)n2n1)C1CC1
6.04

###

- Test Summary: Non-compartmental plasma pharmacokinetics after a single oral filgotinib dose
- Type: in vivo
- Protocol Conditions: male, human, 100 mg
Quantity: Cmax
// return the numeric value with its unit appended

Query Cmax for O=C(Nc1nc2cccc(-c3ccc(CN4CCS(=O)(=O)CC4)cc3)n2n1)C1CC1 [Filgotinib]
565 ng/mL

###

- Format: in vivo, human
- Protocol Conditions: male, human, plasma, oral, 300 mg
Quantity: Tmax
// return the numeric value with its unit appended

Query Tmax for O=C(Nc1nc2cccc(-c3ccc(CN4CCS(=O)(=O)CC4)cc3)n2n1)C1CC1 [Filgotinib]
1.5 h

###

- Format: in vivo, human
- Protocol Conditions: male, human, plasma, oral, 300 mg
Quantity: AUC(0-t) (ng·h/mL)
Please reply with the bare figure in ng·h/mL and do not write the unit itself.

Query AUC(0-t) for O=C(Nc1nc2cccc(-c3ccc(CN4CCS(=O)(=O)CC4)cc3)n2n1)C1CC1
4400

###

- Test Summary: Non-compartmental plasma pharmacokinetics after a single oral filgotinib dose
- Type: in vivo
- Protocol Conditions: male, human, 100 mg
Quantity: half-life

Query half-life for O=C(Nc1nc2cccc(-c3ccc(CN4CCS(=O)(=O)CC4)cc3)n2n1)C1CC1 [Filgotinib]
295 min

###

- Format: in vivo, human
- Protocol Conditions: male, human, plasma, oral, 450 mg
Quantity: AUC(0-t) (ng·h/mL)
Please reply with the bare figure in ng·h/mL and do not write the unit itself.

Query AUC(0-t) for O=C(Nc1nc2cccc(-c3ccc(CN4CCS(=O)(=O)CC4)cc3)n2n1)C1CC1
10200

###

- Format: in vivo, human
- Protocol Conditions: male, human, plasma, oral, 200 mg
Quantity: Tmax (h)
Please reply with the bare figure in h and do not write the unit itself.

Query Tmax for O=C(Nc1nc2cccc(-c3ccc(CN4CCS(=O)(=O)CC4)cc3)n2n1)C1CC1
2
